All values here come from patent US20240141038A1.

Catalogue of Top MFI values
tgt: T1, cynomolgus monkey NKp46 (full length, on cells) (cynomolgus monkey, UniProt Q95JB9 22-306)
T1 construct: also called cynomolgus monkey NKp46-CHOK1; cynomolgus NKp46-CHOK1
protocolDescription: flow cytometry on cynomolgus monkey NKp46-CHOK1 cells
measure: Top MFI

binder	valueMeasured
H2-PA31 humanized antibody (antibody, human IgG1, V domains shown, not shown: constant region of human IgG1) VH: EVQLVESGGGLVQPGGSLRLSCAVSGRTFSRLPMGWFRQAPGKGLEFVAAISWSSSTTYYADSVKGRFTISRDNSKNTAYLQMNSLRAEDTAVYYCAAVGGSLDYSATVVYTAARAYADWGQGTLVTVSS	3270
H2-PA45 humanized antibody (antibody, V domains shown, not shown: constant region of human IgG1) VH: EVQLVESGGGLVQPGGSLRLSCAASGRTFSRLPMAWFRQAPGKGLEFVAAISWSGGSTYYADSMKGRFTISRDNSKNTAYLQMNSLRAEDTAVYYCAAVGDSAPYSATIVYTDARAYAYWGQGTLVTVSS	3590
H4-PC11 humanized antibody (antibody, human IgG1, V domains shown, not shown: constant region of human IgG1) VH: EVQLVESGGGLVQPGGSLRLSCAPSPYSANSFSMAWFRQAPGKGREGIACIQAESGSTNVAPSVKGRFTISQDNSKNTLYLQMNSLRAEDTAVYYCAAFKRNVGGCELRPEHWRFWGQGTLVTVSS	3620
H4-PA45 humanized antibody (antibody, V domains shown, not shown: constant region of human IgG1) VH: EVQLVESGGGLVQPGGSLRLSCAASGRTFSRLPMAWFRQAPGKDREFVAAISWSGGSTYYADSMKGRFTISRDNSKNTAYLQMNSLRAEDTAVYYCAAVGDSAPYSATIVYTDARAYAYWGQGTLVTVSS	3400
H1-PA27 humanized antibody (antibody, human IgG1, V domains shown, also called hPA27; not shown: constant region of human IgG1) VH: QVQLVESGGGVVQPGRSLRLSCAASGRTESWYRMGWVRQAPGKGLEWVARISGDTNIKYYAGSVKGRFTISRDNSKNTLYLQMSSLRAEDTAVYYCAADRTGATWDYWGQGTLVTVSS	2540
H3-PC11 humanized antibody (antibody, human IgG1, V domains shown, not shown: constant region of human IgG1) VH: EVQLVESGGGLVQPGGSLRLSCAASPYSANSFSMAWFRQAPGKGREGVACIQAESGSTNVAPSVKGRFTISQDNSKNTLYLQMNSLRAEDTAVYYCAAFKRNVGGCELRPEHWRFWGQGTLVTVSS	3280
H4-PA31 humanized antibody (antibody, human IgG1, V domains shown, not shown: constant region of human IgG1) VH: EVQLVESGGGLVQPGGSLRLSCAVSGRTFSRLPMGWFRQAPGKDREFVAAISWSSSTTYYADSVKGRFTISRDNSKNTAYLQMNSLRAEDTAVYYCAAVGGSLDYSATVVYTAARAYADWGQGTLVTVSS	3340
H3-PA31 humanized antibody (antibody, human IgG1, V domains shown, not shown: constant region of human IgG1) VH: EVQLVESGGGLVQPGGSLRLSCAVSGRTFSRLPMGWFRQAPGKGREFVAAISWSSSTTYYADSVKGRFTISRDNSKNTAYLQMNSLRAEDTAVYYCAAVGGSLDYSATVVYTAARAYADWGQGTLVTVSS	3210
H3-PA27 humanized antibody (antibody, human IgG1, V domains shown, not shown: constant region of human IgG1) VH: QVQLVESGGGVVQPGRSLRLSCAASGRTESWYRMGWFRQAPGKGREVVARISGDTNIKYYAGSVKGRFTISRDNSKNTLYLQMSSLRAEDTAVYYCAADRTGATWDYWGQGTLVTVSS	4060
H5-PC11 humanized antibody (antibody, human IgG1, V domains shown, not shown: constant region of human IgG1) VH: EVQLVESGGGLVQPGGSLRLSCAPSPYSANSFSMAWFRQAPGKEREGIACIQAESGSTNVAPSVKGRFTISQDNSKNTLYLQMNSLRAEDTAVYYCAAFKRNVGGCELRPEHWRFWGQGTLVTVSS	3660
